// values below are reported half-life
assay overview: metabolic stability in rat hepatocytes in vitro
Assay type: in vitro ADME
condition label: rat liver hepatocytes
Please state the figure in min; there is no need to write the unit.

Req: Entry "[2H]C([2H])([2H])c1onc(-c2ccc(F)cc2)c1COc1ccc(C(=O)N2CCS(=O)(=O)CC2)cn1" : reported half-life = ?
Resp: 38.4

Moving on to another compound below.
Req: Entry Cc1onc(-c2ccc(F)cc2)c1COc1ccc(C(=O)N2CCS(=O)(=O)CC2)cn1 [RG-1662, reference compound] : reported half-life = ?
Resp: 36

----------
assay overview: metabolic stability in human hepatocytes in vitro
Format: in vitro ADME
condition label: human liver hepatocytes; human hepatocytes in vitro
quantity measured: half-life (min)
Please state the figure in min; there is no need to write the unit.

Req: Entry Cc1onc(-c2ccc(F)cc2)c1COc1ccc(C(=O)N2CCS(=O)(=O)CC2)cn1 [RG-1662, reference compound] : reported half-life = ?
Resp: 720
